Record set of pIC50 for target or system IMP-1 (Serratia marcescens, UniProt P52699).
API: returns pIC50 as number; meaning -log10 of concentration in mol/L.

>  <Compound>
NS(=O)(=O)c1c(S(=O)(=O)C2CNC2)ccc(N2CCC3(CCNCC3)CC2)c1-c1nnn[nH]1

>  <pIC50>
8.28

$$$$

For the compound CC1(O)CCCN(c2ccc(S(=O)(=O)C3CNC3)c(S(N)(=O)=O)c2-c2nnn[nH]2)C1 (stereo not shown) , give its reported pIC50.
8.08

For the compound `NCC1CCN(c2ccc(S(=O)(=O)NC[C@H](O)CN)c(S(N)(=O)=O)c2-c2nnn[nH]2)CC1` , give its reported pIC50.
8.39

For the compound `NCC(CN)NS(=O)(=O)c1ccc(N2CCC(CO)CC2)c(-c2nnn[nH]2)c1S(N)(=O)=O` , give its reported pIC50.
9.28

---

Record set of IC50 for target or system NDM-1 (Klebsiella pneumoniae).
Field format: number, assumed nM, no unit text.

For the compound CN1CCN(c2ccc(S(=O)(=O)N[C@@H]3CCNC3)c(S(N)(=O)=O)c2-c2nnn[nH]2)CC1=O [Example 65] , give its reported IC50.
1.28

For the compound NC[C@H]1CCCN(c2ccc(S(=O)(=O)N[C@@H]3CCNC3)c(S(N)(=O)=O)c2-c2nnn[nH]2)C1 [Example 82] , give its reported IC50.
42.9

For the compound NC[C@@H](O)CNS(=O)(=O)c1ccc(N2CC[C@H](CN)[C@@H](F)C2)c(-c2nn[nH]n2)c1S(N)(=O)=O (stereo in doubt) [Example 13] , give its reported IC50.
3.01

For the compound NS(=O)(=O)c1c(S(=O)(=O)N[C@@H]2CCNC2)ccc(N2CCCC(C(=O)NCCCO)C2)c1-c1nnn[nH]1 (some centres unmarked) [Example 108] , give its reported IC50.
0.71

---

# System Name: IMP-1 (Serratia marcescens)
# Sequence (P52699 whole entry, looked up, species assumed): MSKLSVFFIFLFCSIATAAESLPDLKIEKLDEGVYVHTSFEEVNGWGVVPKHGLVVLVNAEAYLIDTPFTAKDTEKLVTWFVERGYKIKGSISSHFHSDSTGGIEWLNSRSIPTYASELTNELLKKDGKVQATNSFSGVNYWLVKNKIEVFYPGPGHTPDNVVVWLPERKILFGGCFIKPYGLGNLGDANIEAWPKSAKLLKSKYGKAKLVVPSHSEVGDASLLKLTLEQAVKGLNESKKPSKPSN
# pIC50 values compiled below
API: returns pIC50 as number; meaning -log10 of concentration in mol/L.

>  <Compound>
NCCC1CCN(c2ccc(S(=O)(=O)N[C@@H](CN)CO)c(S(N)(=O)=O)c2-c2nn[nH]n2)CC1

>  <System Name>
IMP-1 (Serratia marcescens)

>  <Measurement Type>
pIC50

>  <Recorded Measurement>
9.62

$$$$

Enter measured pIC50, system IMP-1 (Serratia marcescens), for the compound shown: `C[C@H](CN)NS(=O)(=O)c1ccc(N2CCC(CN)CC2)c(-c2nnn[nH]2)c1S(N)(=O)=O`
8.74

Enter measured pIC50, system IMP-1 (Serratia marcescens), for the compound shown: Cl.Cl.NCC1CCN(c2ccc(S(=O)(=O)N[C@@H]3CCNC3)c(S(N)(=O)=O)c2-c2nn[nH]n2)CC1 [Example 135, dihydrochloride]
8.46

Enter measured pIC50, system IMP-1 (Serratia marcescens), for the compound shown: NC[C@@H](O)CNS(=O)(=O)c1ccc(N2CCC(C(N)CO)CC2)c(-c2nn[nH]n2)c1S(N)(=O)=O (mixture of isomers) [Example 182]
8.40

---

# System: P. aeruginosa MB9798 (efflux+, IMP-1 plasmid)
# Condition Details: fold difference between efflux+ (MB9798) and efflux− (MB9799) strains
Assign class by Efflux ratio: not lower than 8 means Criterion met; lower than 8 means Criterion not met.

>  <Molecule>
NCCC1CN(c2ccc(S(=O)(=O)NC[C@H](O)CN)c(S(N)(=O)=O)c2-c2nn[nH]n2)C1

>  <System Name>
P. aeruginosa MB9798 (efflux+, IMP-1 plasmid)

>  <Assigned Class>
Criterion not met

$$$$
>  <Molecule>
NS(=O)(=O)c1c(S(=O)(=O)N[C@@H]2CCNC2)ccc(N2CCC(O)CC2=O)c1-c1nn[nH]n1 (stereo partly drawn)

>  <System Name>
P. aeruginosa MB9798 (efflux+, IMP-1 plasmid)

>  <Assigned Class>
Criterion not met

$$$$
>  <Molecule>
NS(=O)(=O)c1c(S(=O)(=O)N[C@@H]2CCNC2)ccc(NCCN2CCOCC2)c1-c1nnn[nH]1

>  <System Name>
P. aeruginosa MB9798 (efflux+, IMP-1 plasmid)

>  <Assigned Class>
Criterion met

$$$$
>  <Molecule>
NC[C@@H](O)CNS(=O)(=O)c1ccc(N2CCC(CC(N)=O)CC2)c(-c2nn[nH]n2)c1S(N)(=O)=O

>  <System Name>
P. aeruginosa MB9798 (efflux+, IMP-1 plasmid)

>  <Assigned Class>
Criterion not met

$$$$
>  <Molecule>
CN1CCOC2(C1)CN(c1ccc(S(=O)(=O)N[C@@H]3CCNC3)c(S(N)(=O)=O)c1-c1nnn[nH]1)C2

>  <System Name>
P. aeruginosa MB9798 (efflux+, IMP-1 plasmid)

>  <Assigned Class>
Criterion met

$$$$
>  <Molecule>
NS(=O)(=O)c1c(S(=O)(=O)N[C@@H]2CCNC2)ccc(N2CC(N3CCCCC3)C2)c1-c1nnn[nH]1

>  <System Name>
P. aeruginosa MB9798 (efflux+, IMP-1 plasmid)

>  <Assigned Class>
Criterion met

$$$$

For the next question, use this molecule.
Is Efflux ratio at least 8? Consider `NC[C@@H](O)CNS(=O)(=O)c1ccc(N2CC[C@@H](N)C2)c(-c2nn[nH]n2)c1S(N)(=O)=O`
Criterion not met

---

Record set of IC50 for target or system NDM-1 (Klebsiella pneumoniae, UniProt C7C422).
Where a name gives a salt, the structure may show the parent alone.
Field format: number, assumed nM, no unit text.

// solved cases for IC50 follow
>  <Compound>
NS(=O)(=O)c1c(S(=O)(=O)N[C@@H]2CCNC2)ccc(N2CCN(CCO)CC2)c1-c1nn[nH]n1

>  <Unit Tag>
nM

>  <IC50>
1.2

$$$$
>  <Compound>
NS(=O)(=O)c1c(S(=O)(=O)N[C@@H]2CCNC2)ccc(NC2CCOCC2)c1-c1nnn[nH]1

>  <Unit Tag>
nM

>  <IC50>
0.62

$$$$
>  <Compound>
C[N+](C)(C)CCCCNc1ccc(S(=O)(=O)N[C@@H]2CCNC2)c(S(N)(=O)=O)c1-c1nnn[nH]1

>  <Unit Tag>
nM

>  <IC50>
3.31

$$$$

Enter measured IC50, system NDM-1 (Klebsiella pneumoniae, UniProt C7C422), for the compound shown: `NCC1=CCN(c2ccc(S(=O)(=O)NC[C@H](O)CN)c(S(N)(=O)=O)c2-c2nn[nH]n2)C1.O=C(O)C(F)(F)F.O=C(O)C(F)(F)F`
11.4

Enter measured IC50, system NDM-1 (Klebsiella pneumoniae, UniProt C7C422), for the compound shown: `C[C@H](CN)NS(=O)(=O)c1ccc(N2CCC(CN)CC2)c(-c2nnn[nH]2)c1S(N)(=O)=O`
0.45

Enter measured IC50, system NDM-1 (Klebsiella pneumoniae, UniProt C7C422), for the compound shown: `NCCNS(=O)(=O)C1CCN(c2ccc(S(=O)(=O)N[C@@H](CN)CO)c(S(N)(=O)=O)c2-c2nn[nH]n2)CC1`
0.44

Enter measured IC50, system NDM-1 (Klebsiella pneumoniae, UniProt C7C422), for the compound shown: NS(=O)(=O)c1c(S(=O)(=O)N[C@@H]2CCNC2)ccc(N2CCC(O)CC2=O)c1-c1nn[nH]n1 (some centres unmarked)
0.61

Enter measured IC50, system NDM-1 (Klebsiella pneumoniae, UniProt C7C422), for the compound shown: NC[C@@H](O)CNS(=O)(=O)c1ccc(N2CCC(C(N)=O)C2)c(-c2nn[nH]n2)c1S(N)(=O)=O (some centres unmarked)
1.55

Enter measured IC50, system NDM-1 (Klebsiella pneumoniae, UniProt C7C422), for the compound shown: NCCC1CCCN(c2ccc(S(=O)(=O)NC[C@H](O)CN)c(S(N)(=O)=O)c2-c2nn[nH]n2)CC1 (some centres unmarked) [Example 140, trifluoroacetate]
3.75

Enter measured IC50, system NDM-1 (Klebsiella pneumoniae, UniProt C7C422), for the compound shown: NC[C@@H](O)CNS(=O)(=O)c1ccc(NC2CCC(N)C2)c(-c2nn[nH]n2)c1S(N)(=O)=O (some centres unmarked)
19.4

Enter measured IC50, system NDM-1 (Klebsiella pneumoniae, UniProt C7C422), for the compound shown: `NS(=O)(=O)c1c(S(=O)(=O)N[C@@H]2CCNC2)ccc(NCCN2CCOCC2)c1-c1nnn[nH]1`
5.51

Enter measured IC50, system NDM-1 (Klebsiella pneumoniae, UniProt C7C422), for the compound shown: `NS(=O)(=O)c1c(S(=O)(=O)C2CNC2)ccc(N2CCN(CCO)CC2)c1-c1nnn[nH]1`
16.7

Enter measured IC50, system NDM-1 (Klebsiella pneumoniae, UniProt C7C422), for the compound shown: `NS(=O)(=O)c1c(S(=O)(=O)C2CNC2)ccc(N2CCC(O)CC2)c1-c1nnn[nH]1`
1.67

Enter measured IC50, system NDM-1 (Klebsiella pneumoniae, UniProt C7C422), for the compound shown: `NCCOCC1CCN(c2ccc(S(=O)(=O)NC[C@H](O)CN)c(S(N)(=O)=O)c2-c2nn[nH]n2)CC1`
1.05
